system: MV4:11 human cancer cell lines; assay: Anti-proliferative activity, CellTiter-Glo viability assay, 7 day protocol; type: cell-based; details: Homo sapiens, MV4-11, 168 h, MV4:11 cells, 7 day incubation, read-out: GI50 on cellular proliferation of MV4:11 human cancer cell lines
Please provide measured log10(GI50) for the entries that follow.
Recorded GI50 (log10, nM)

Ask | What measured log10(GI50) goes with Cc1cc(-c2cc(Cn3ccn(C)c3=N)cc(C(=O)NCc3ccc(Cl)c(Cl)c3)c2)ccn1 ?
Reply | 4.15

Ask | What measured log10(GI50) goes with Cn1cc(-c2cc(CN3CCSC3=N)cc(C(=O)N[C@H](c3ccc(Cl)c(Cl)c3)C3CC3)c2)c(C(F)(F)F)n1 ?
Reply | 2.23

Ask | What measured log10(GI50) goes with Cc1ccnc(C(NC(=O)c2cc(Cn3ccn(C)c3=N)cc(-c3ncc(F)cc3C(F)(F)F)c2)C2CC2)c1 (stereo not shown) ?
Reply | 4.08

Ask | What measured log10(GI50) goes with Cc1cc([C@H](NC(=O)c2cc(Cn3ccn(C)c3=N)cc(-c3ccc(F)cc3C)c2)C(F)(F)F)ccc1F ?
Reply | 3.26

Ask | What measured log10(GI50) goes with Cc1cc([C@@H](NC(=O)c2cc(Cn3ccoc3=N)cc(-c3ccc(F)cc3OC(F)F)c2)C2CC2)ccc1F ?
Reply | 2.08

Ask | What measured log10(GI50) goes with Cc1ccnc(C(NC(=O)c2cc(Cn3ccn(C)c3=N)cc(-c3cccnc3C)c2)C2CC2)c1 (stereo not shown) ?
Reply | 3.58

* * *

system: MV4:11 human cancer cell lines; assay: Anti-proliferative activity, CellTiter-Glo viability assay, 7 day protocol; assay type: cell-based; conditions: Homo sapiens, MV4-11, 168 h, MV4:11 cells, 7 day incubation, read-out: GI50 on cellular proliferation of MV4:11 human cancer cell lines
readout: GI50 (nM)
Quick note: give the figure in nM, leave out the unit.

Ask | What measured GI50 goes with COc1cc(OC)cc(C(C)NC(=O)c2cc(Cn3ccn(C)c3=N)cc(-c3ccc(F)cc3C)n2)c1 (centres unmarked) ?
Reply | 1190

Ask | What measured GI50 goes with Cc1cc([C@@H](NC(=O)c2cc(Cn3ccoc3=N)cc(-c3ccc(F)cc3C)c2)C2CC2)ccc1F ?
Reply | 210

Ask | What measured GI50 goes with Cc1cc([C@@H](NC(=O)c2cc(Cn3ccn(C)c3=N)cc(OCC3CC3)c2)C2CC2)ccc1F ?
Reply | 320

Ask | What measured GI50 goes with Cc1cc([C@@H](NC(=O)c2cc(Cn3cccc(C)c3=N)cc(-c3cccnc3C(F)(F)F)c2)C2CC2)ccc1F ?
Reply | 250

Ask | What measured GI50 goes with COc1cc(CNC(=O)c2cc(Cn3ccn(C)c3=N)cc(-c3c(C)cc(F)cc3F)c2)cc(OC)c1 ?
Reply | 510

Ask | What measured GI50 goes with Cc1ccnc(C(NC(=O)c2cc(Cn3ccoc3=N)cc(-c3ncc(F)cc3C)c2)C2CC2)c1 (centres unmarked) ?
Reply | 5300

Ask | What measured GI50 goes with COc1cc(CNC(=O)c2cc(Cn3ccn(C)c3=N)nc(-c3ccc(F)cc3C)c2)cc(OC)c1 ?
Reply | 6000

Ask | What measured GI50 goes with CCOC(=O)/N=c1\n(C)ccn1Cc1cc(C(=O)NCc2ccc(Cl)c(Cl)c2)cc(-c2ccc(F)nc2C)c1 ?
Reply | 4200

* * *

Please provide measured GI50 for the entries that follow.
system: MV4:11 human cancer cell lines; assay: Anti-proliferative activity, CellTiter-Glo viability assay, 7 day protocol; format: cell-based; details: Homo sapiens, MV4-11, 168 h, MV4:11 cells, 7 day incubation, read-out: GI50 on cellular proliferation of MV4:11 human cancer cell lines
Record the result as a number with its unit.

Ask | What measured GI50 goes with Cc1cc([C@@H](NC(=O)c2cc(Cn3ccn(C)c3=N)cc(-c3cccnc3OC(F)F)c2)C2CC2)ccc1F ?
Reply | 0.73 µM

Ask | What measured GI50 goes with COc1cc(CNC(=O)c2cc(Cn3ccn(C)c3=N)cc(-c3ncc(F)cc3C)c2)cc(OC)c1 ?
Reply | 3.8 µM

Ask | What measured GI50 goes with Cc1cc(CNC(=O)c2cc(Cn3ccn(C)c3=N)cc(OC(F)(F)F)c2)ccc1Cl ?
Reply | 0.84 µM

Ask | What measured GI50 goes with Cc1cc([C@H](C)NC(=O)c2cc(Cn3ccoc3=N)cc(-c3ccc(F)cc3C)c2)ccc1Cl ?
Reply | 0.87 µM

Ask | What measured GI50 goes with Cc1ccn(Cc2cc(C(=O)N[C@H](c3ccc(F)c(C)c3)C3CC3)cc(-c3cccnc3C(F)(F)F)c2)c(=N)c1 ?
Reply | 0.68 µM

Ask | What measured GI50 goes with Cc1cc([C@@H](NC(=O)c2cc(CN3CCOC3=N)cc(-c3cc(C(F)(F)F)nn3C)c2)C2CC2)ccc1F ?
Reply | 0.1 µM

Ask | What measured GI50 goes with Cc1cc([C@@H](NC(=O)c2cc(CN3CCCC3=N)cc(-c3ccc(F)cc3C#N)c2)C2CC2)ccc1F ?
Reply | 0.52 µM

* * *

test system: MV4:11 human cancer cell lines; assay: Anti-proliferative activity, CellTiter-Glo viability assay, 7 day protocol; assay type: cell-based; conditions: Homo sapiens, MV4-11, 168 h, MV4:11 cells, 7 day incubation, read-out: GI50 on cellular proliferation of MV4:11 human cancer cell lines
Could you mark each record Condition met if its GI50 falls strictly under 200 nM, and Condition not met if it equals or exceeds it?

Ask | # check: GI50 < 200 nM for COc1cc(CNC(=O)c2cc(Cn3ccn(C)c3=N)cc(-c3c(C)cc(F)cc3C)c2)cc(OC)c1
Reply | Condition not met

Ask | # check: GI50 < 200 nM for COc1cc(CNC(=O)c2cc(Cn3ccoc3=N)cc(-c3ccc(F)cc3C)c2)cc(OC)c1
Reply | Condition not met

Ask | # check: GI50 < 200 nM for Cc1cc([C@@H](NC(=O)c2cc(CN3CCOC3=N)cc(-c3ccc(F)cc3C(F)F)c2)C2CC2)ccc1F
Reply | Condition met

Ask | # check: GI50 < 200 nM for Cc1cc([C@@H](NC(=O)c2cc(CN3CCOC3=N)cc(-c3ccc(F)cc3C(F)(F)F)c2F)C2CC2)ccc1F
Reply | Condition met

Ask | # check: GI50 < 200 nM for CCn1cc(-c2cc(Cn3ccn(C)c3=N)cc(C(=O)N[C@H](c3ccc(Cl)c(Cl)c3)C3CC3)c2)c(C(F)(F)F)n1
Reply | Condition met

Ask | # check: GI50 < 200 nM for Cc1cc([C@@H](NC(=O)c2cc(Cn3ccn(C)c3=N)cc(-c3cccnc3C(F)(F)F)c2)C2CC2)ccc1F
Reply | Condition met

Ask | # check: GI50 < 200 nM for Cn1ccn(Cc2cc(C(=O)N[C@H](c3ccc(Cl)c(Cl)c3)C3CC3)cc(-c3ncc(F)cc3C(F)(F)F)c2)c1=N
Reply | Condition not met

Ask | # check: GI50 < 200 nM for Cc1cc([C@@H](NC(=O)c2cc(Cn3ccoc3=N)cc(-c3cccnc3C(F)(F)F)c2)C2CC2)ccc1F
Reply | Condition met

Ask | # check: GI50 < 200 nM for Cc1cc([C@@H](NC(=O)c2cc(Cn3ccn(C)c3=N)cc(-c3cn(C)nc3C(F)(F)F)c2)C2CC2)ccc1F
Reply | Condition met

Ask | # check: GI50 < 200 nM for CCn1cc(-c2cc(Cn3ccsc3=N)cc(C(=O)N[C@H](c3ccc(Cl)c(F)c3)C3CC3)c2)c(C(F)(F)F)n1
Reply | Condition met

Ask | # check: GI50 < 200 nM for COc1ccnc(CNC(=O)c2cc(Cn3ccn(C)c3=N)cc(-c3cc(C)ccc3OC)c2)c1
Reply | Condition not met

Ask | # check: GI50 < 200 nM for Cc1cc([C@@H](NC(=O)c2cc(CN3CCOC3=N)cc(-c3cn(C)nc3C(F)(F)F)c2)C2CC2)ncc1F
Reply | Condition met

Ask | # check: GI50 < 200 nM for Cc1cc([C@@H](NC(=O)c2cc(Cn3ccn(C)c3=N)cc(-c3ncc(F)cc3C(F)(F)F)c2)C2CC2)ccc1F
Reply | Condition met

Ask | # check: GI50 < 200 nM for COc1cc(OC)cc(C(NC(=O)c2cc(Cn3ccoc3=N)cc(-c3ncccc3C(F)(F)F)c2)C2CC2)c1 (centres unmarked)
Reply | Condition not met

* * *

target: WDR5 (Homo sapiens (Human)); assay: TR-FRET binding assay (displacement of 10mer-Thr-FAM probe from WDR5); settings: read-out: Ki for Inhibition of WDR5 by TR-FRET assay; TR-FRET, 10mer-Thr-FAM probe, WDR5-His tag 2 nM, pH 7.0
Please provide measured pKi for the entries that follow.
When answering, recall that pKi equals minus log10 of the concentration in mol/L, and write that number alone.

Ask | What measured pKi goes with Cc1cc([C@@H](NC(=O)c2cc(CN3CCSC3=N)cc(-c3cn(C4CCCC4)nc3C(F)(F)F)c2)C2CC2)ccc1F ?
Reply | 8.40

Ask | What measured pKi goes with COc1cc(-c2cc(Cn3ccn(C)c3=N)cc(C(=O)NCc3ccc(Cl)c(Cl)c3)c2)ccn1 ?
Reply | 7.60

Ask | What measured pKi goes with Cc1cc(CNC(=O)c2cc(Cn3ccn(C)c3=N)cc(OC(F)(F)F)c2)ccc1Cl ?
Reply | 9.43

Ask | What measured pKi goes with Cn1ccn(Cc2cc(OC(F)(F)F)cc(C(=O)N[C@@H](CC(=O)O)c3cccc(C(F)(F)F)c3)c2)c1=N ?
Reply | 8.00

Ask | What measured pKi goes with Cc1ccnc([C@@H](NC(=O)c2cc(Cn3ccn(C)c3=N)cc(-c3cccnc3C(F)(F)F)c2F)C2CC2)c1 ?
Reply | 9.89
